target: T1, native human ApoC3 (human, UniProt P02656 21-99); test: SPR, ApoC3 over captured IgG1, pH 5.5
T1 construct: also called nhuApoC3; native huApoC3
T1 sequence (P02656 21-99): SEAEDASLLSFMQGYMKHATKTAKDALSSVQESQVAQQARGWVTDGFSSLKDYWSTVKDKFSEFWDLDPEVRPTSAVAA
koff overview
Provide only the numeric value, understood in s⁻¹.

Consider the reported koff for these binders:
binder="mAb15 (antibody, IgG1, V domains shown, Produced as full length IgG1 (kappa) in ExpiCHO-S cells; also called humanized anti-ApoC3 antibody mAb15) VH: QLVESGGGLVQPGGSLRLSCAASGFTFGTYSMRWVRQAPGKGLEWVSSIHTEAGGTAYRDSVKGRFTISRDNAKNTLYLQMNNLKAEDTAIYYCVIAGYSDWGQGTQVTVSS VL: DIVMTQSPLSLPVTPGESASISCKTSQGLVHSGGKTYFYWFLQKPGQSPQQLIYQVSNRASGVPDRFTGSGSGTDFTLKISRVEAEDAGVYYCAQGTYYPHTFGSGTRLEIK" numericresult=0.0116
binder="mAb7 (antibody, V domains shown, Produced as full length IgG1 (kappa) in ExpiCHO-S cells; also called humanized anti-ApoC3 antibody mAb7) VH: QLVESGGGLVQPGGSLRLSCAASGFTFSTYSMRWVRQAPGKGLEWVSSIHTGGGGTAYRDSVKGRFTISRDNAKNTLYLQMNNLRAEDTAIYYCVIAGYSDWGQGTLVTVSS VL: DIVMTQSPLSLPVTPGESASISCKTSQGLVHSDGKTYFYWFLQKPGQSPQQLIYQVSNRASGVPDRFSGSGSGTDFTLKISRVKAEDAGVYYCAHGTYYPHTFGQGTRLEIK" numericresult=0.0646
binder="mAb17 (antibody, IgG1, V domains shown, Produced as full length IgG1 (kappa) in ExpiCHO-S cells; also called humanized anti-ApoC3 antibody mAb17) VH: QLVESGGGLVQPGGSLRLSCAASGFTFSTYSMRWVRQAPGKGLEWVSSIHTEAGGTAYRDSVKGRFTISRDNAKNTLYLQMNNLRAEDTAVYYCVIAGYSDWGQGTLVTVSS VL: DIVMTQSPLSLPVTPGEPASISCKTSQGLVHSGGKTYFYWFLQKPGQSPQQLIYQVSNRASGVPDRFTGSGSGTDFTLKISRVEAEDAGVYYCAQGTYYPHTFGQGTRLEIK" numericresult=0.0217

--- query ---
Lookup: What does the data say about its koff? Entry: mAb11 (antibody, IgG1, V domains shown, Produced as full length IgG1 (kappa) in ExpiCHO-S cells; also called humanized anti-ApoC3 antibody mAb11) VH: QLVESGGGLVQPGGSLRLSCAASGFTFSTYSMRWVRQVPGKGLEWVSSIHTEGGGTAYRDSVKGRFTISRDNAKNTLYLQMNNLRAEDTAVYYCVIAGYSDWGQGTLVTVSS VL: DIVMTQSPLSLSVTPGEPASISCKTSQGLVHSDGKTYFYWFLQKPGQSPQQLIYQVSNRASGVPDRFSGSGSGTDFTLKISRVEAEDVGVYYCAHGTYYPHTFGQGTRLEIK
Found: 0.0405
